testedSystem: VIM-1 (Pseudomonas aeruginosa (strain ATCC 15692 / DSM 22644 / CIP 104116 / JCM 14847 / LMG 12228 / 1C / PRS 101 / PAO1), UniProt A0A0F7KYQ8)
procedureDetails: biochemical
assaySetup: CCF2-FA fluorescence assay, 2 hours at 25° C.; read-out: VIM1 IC50
# if measured IC50 < 0.7 nM: Yes  # else: No

> print(dat)
                                    compound  classification
 1  NCCNS(=O)(=O)C1CCN(c2ccc(S(=O)(=O)NC[C@H](O)CN)c(S(N)(=O)=O)c2-c2nn[nH]n2)CC1 [Example 131]             Yes
 2  NS(=O)(=O)c1c(S(=O)(=O)N[C@@H]2CCNC2)ccc(N2CCCCC2=O)c1-c1nn[nH]n1             Yes
 3  NS(=O)(=O)c1c(S(=O)(=O)C2CNC2)ccc(N2CC3C(CO)C3C2)c1-c1nnn[nH]1 (centres unmarked)              No
 4  NC(=O)C1CCN(c2ccc(S(=O)(=O)N[C@@H]3CCNC3)c(S(N)(=O)=O)c2-c2nnn[nH]2)CC1             Yes
 5  NC(=O)[C@H]1CN(c2ccc(S(=O)(=O)N[C@@H]3CCNC3)c(S(N)(=O)=O)c2-c2nn[nH]n2)CCN1              No
 6  NCCN1CCN(c2ccc(S(=O)(=O)N[C@@H]3CCNC3)c(S(N)(=O)=O)c2-c2nnn[nH]2)CC1              No
 7  NC1CCN(c2ccc(S(=O)(=O)N[C@@H]3CCNC3)c(S(N)(=O)=O)c2-c2nnn[nH]2)CC1             Yes
 8  NS(=O)(=O)c1ccc(N2CCC3(CCNCC3)C2=O)c(-c2nn[nH]n2)c1S(N)(=O)=O              No
 9  CN(C)[C@H]1CCN(c2ccc(S(=O)(=O)N[C@@H]3CCNC3)c(S(N)(=O)=O)c2-c2nnn[nH]2)C1              No
10  NC[C@@H](O)CNS(=O)(=O)c1ccc(N2CC[C@@H](N)[C@@H](F)C2)c(-c2nn[nH]n2)c1S(N)(=O)=O (single isomer, unassigned) [Example 1]             Yes
11  NS(=O)(=O)c1c(S(=O)(=O)N[C@@H]2CCNC2)ccc(NCC2CCNCC2)c1-c1nn[nH]n1              No
12  CC1CC(CN)CCN1c1ccc(S(=O)(=O)NC[C@H](O)CN)c(S(N)(=O)=O)c1-c1nn[nH]n1 (some centres unmarked)             Yes
13  NC[C@H](N)CNS(=O)(=O)c1ccc(N2CCN(CCO)CC2)c(-c2nnn[nH]2)c1S(N)(=O)=O              No
14  NC[C@@H](O)CNS(=O)(=O)c1ccc(N2CCC[C@@H](CN)C2)c(-c2nnn[nH]2)c1S(N)(=O)=O             Yes

---

This section presents compounds with their documented pIC50 values.
testedSystem: IMP-1 (Serratia marcescens)
Sequence (P52699 whole entry, looked up, species assumed): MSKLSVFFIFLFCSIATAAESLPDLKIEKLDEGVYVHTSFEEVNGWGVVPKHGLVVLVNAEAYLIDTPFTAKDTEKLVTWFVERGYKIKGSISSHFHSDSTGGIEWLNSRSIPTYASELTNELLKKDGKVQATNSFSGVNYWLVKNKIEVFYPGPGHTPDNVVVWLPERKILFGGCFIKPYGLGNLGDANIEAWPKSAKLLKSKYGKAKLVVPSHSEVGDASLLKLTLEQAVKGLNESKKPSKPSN
pIC50: −log10 of the molar value.
propertyMeasured: pIC50

> print(dat)
                                    compound  propertymeasured  valuereported
 1  NC(=O)[C@H]1CN(c2ccc(S(=O)(=O)N[C@@H]3CCNC3)c(S(N)(=O)=O)c2-c2nn[nH]n2)CCN1 [Example 197]             pIC50           8.00
 2  NS(=O)(=O)c1c(S(=O)(=O)N[C@@H]2CCNC2)ccc(N2CCCC(C(=O)NCCCO)C2)c1-c1nnn[nH]1 (some centres unmarked) [Example 108]             pIC50           8.62
 3  NC[C@@H]1CCN(c2ccc(S(=O)(=O)N[C@@H]3CCNC3)c(S(N)(=O)=O)c2-c2nn[nH]n2)C[C@@H]1F (racemic) [Example 7]             pIC50           8.46
 4  NS(=O)(=O)c1c(S(=O)(=O)N[C@@H]2CCNC2)ccc(N2CCNC2=S)c1-c1nn[nH]n1 [Example 191]             pIC50           7.60
 5  NOC1CCCN(c2ccc(S(=O)(=O)N[C@@H]3CCNC3)c(S(N)(=O)=O)c2-c2nn[nH]n2)C1=O (some centres unmarked) [Example 150]             pIC50           7.77
 6  NC[C@@H](O)CNS(=O)(=O)c1ccc(N2CC[C@@H](CN)[C@@H](F)C2)c(-c2nn[nH]n2)c1S(N)(=O)=O (racemic) [Example 6]             pIC50           8.47
 7  C[C@@H](CN)NS(=O)(=O)c1ccc(N2CCC(O)(CN)CC2)c(-c2nn[nH]n2)c1S(N)(=O)=O [Example 18]             pIC50           8.83
 8  NC[C@@H](O)CNS(=O)(=O)c1ccc(N[C@H]2C[C@H](N)C2)c(-c2nnn[nH]2)c1S(N)(=O)=O [Example 192]             pIC50           7.01
 9  CN(CCO)CCN(C)c1ccc(S(=O)(=O)NC[C@H](O)CN)c(S(N)(=O)=O)c1-c1nn[nH]n1 [Example 136]             pIC50           6.70
10  NCCNS(=O)(=O)C1CCN(c2ccc(S(=O)(=O)N[C@@H](CN)CO)c(S(N)(=O)=O)c2-c2nn[nH]n2)CC1 [Example 202]             pIC50           9.24
11  NC1CCN(c2ccc(S(=O)(=O)N[C@@H]3CCNC3)c(S(N)(=O)=O)c2-c2nnn[nH]2)CC1 [Example 73]             pIC50           7.78
12  NCC=C1CCCN(c2ccc(S(=O)(=O)NC[C@H](O)CN)c(S(N)(=O)=O)c2-c2nn[nH]n2)C1 (single isomer, unassigned; isomer a) [Example 205]             pIC50           7.70
13  NC[C@@H](O)CNS(=O)(=O)c1ccc(N2CC[C@H](N)C2)c(-c2nn[nH]n2)c1S(N)(=O)=O [Example 126]             pIC50           6.91
14  NCCN1CCN(c2ccc(S(=O)(=O)N[C@@H]3CCNC3)c(S(N)(=O)=O)c2-c2nnn[nH]2)CC1 [Example 76]             pIC50           7.97

Hey, just so you know, these numbers are from patent US11207312B2.
